Origin of measurements: patent US20090215807A1

Test: Human microsomal stability assay
Format: in vitro ADME
Conditions: human microsomes (Xenotech); human microsomes 1 mg protein/mL, compound 2.5 μM, NADPH 2 mM, pH 7.4, 37° C.; read-out: Intrinsic clearance
Protocol: Human Microsomal Stability Assay Samples at four time-points (0, 5, 15 and 30 minutes) are withdrawn and the enzymatic reaction is terminated by protein precipitation with 1% acetic acid in acetonitrile. […] After centrifugation of the samples, the supernatants are pooled in sets of four before they are analysed by liquid chromatography with tandem mass spectrometry detection (LC/MS/MS) using multiple reaction monitoring (MRM). […]
RECORDED_METRIC: microsomal CLint at 2.5 μM

// solved cases for microsomal CLint at 2.5 μM follow
Exam item: Reported microsomal CLint at 2.5 μM, compound COc1ccccc1Oc1cccc(CN2CCC3(CC2)CCN(C(=O)c2ccc[n+]([O-])c2)CC3)c1 : ____
Marked response: < 10 µL/min/mg

Exam item: Form field: reported microsomal CLint at 2.5 μM of COc1ccccc1Oc1ccccc1CN1CCC2(CC1)CCN(C(=O)c1cccc[n+]1[O-])CC2
Marked response: < 10 µL/min/mg

Exam item: Would you mind telling me what microsomal CLint at 2.5 μM value was observed for COc1ccccc1Oc1cccc(CN2CCC3(CC2)CCN(C(=O)c2ccncc2)CC3)c1 [Y, reference compound] ?
Marked response: 183 µL/min/mg

Exam item: So what does the record say about microsomal CLint at 2.5 μM for COc1ccccc1Oc1ccccc1CN1CCC2(CC1)CCN(C(=O)c1cc[n+]([O-])cc1)CC2 ?
Marked response: < 10 µL/min/mg

Exam item: # microsomal CLint at 2.5 μM lookup, item COc1ccccc1Oc1ccccc1CN1CCC2(CC1)CCN(C(=O)c1ccc[n+]([O-])c1)CC2
Marked response: < 10 µL/min/mg

Exam item: Endpoint output: microsomal CLint at 2.5 μM of O=C(c1cc[n+]([O-])cc1)N1CCC2(CCN(Cc3cccc(Oc4ccccc4)c3)CC2)CC1 . Value?
Marked response: < 10 µL/min/mg

Exam item: I'd like to know its microsomal CLint at 2.5 μM. The compound in question is COc1ccccc1Oc1ccccc1CN1CCC2(CC1)CCN(C(=O)c1ccncc1)CC2 [X, reference compound]
Marked response: 89 µL/min/mg

Here is another compound to look at.
Exam item: What measured microsomal CLint at 2.5 μM goes with O=C(c1cccc[n+]1[O-])N1CCC2(CCN(Cc3cccc(Oc4ccccc4)c3)CC2)CC1 ?
Marked response: < 10 µL/min/mg
